Test system: Human papillomavirus type 1a protein E7 (residues 44-93)
run.description: HPV1a E7 fragment binders on microarrays, primary screen, biochemical, small-molecule microarray, residues 44-93, 635 nm fluorescence (AID 1108);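 further: E7 fragment applied at 1 µg/mL in TBST for 1 h at 4 C; score combines spot fluorescence with its signal to noise ratio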
conditions: small-molecule microarray binding, fluorescence 635 nm; higher = more signal
measurement.name: composite z-score

[
  {
    "structure": "C=CCOC(=O)[C@H]1[C@@H]2C(=O)O[C@@H](c3ccccc3)[C@@H](c3ccccc3)N2[C@@H](c2ccc(OCCOC(=O)[C@H]3C[C@H]4C(=O)N[C@@H](Cc5ccccc5)C(=O)N4[C@H]3c3cccc(OCCO)c3)cc2)[C@]12C(=O)Nc1ccc(I)cc12",
    "study.system": "Human papillomavirus type 1a protein E7 (residues 44-93)",
    "composite z-score": 1.38
  },
  {
    "structure": "CCOC(=O)C[C@H]1[C@H](OC(=O)c2ccc(-c3ccccc3)cc2)[C@@H](NC(=O)c2ccc3ccccc3n2)c2cc(OCCCO)ccc2N1C(=O)c1ccccc1",
    "study.system": "Human papillomavirus type 1a protein E7 (residues 44-93)",
    "composite z-score": 1.33
  },
  {
    "structure": "O=C(N1CCCCC1)[C@@]1(Cc2ccccc2)COC(c2ccc(OCCCO)cc2)=N1",
    "study.system": "Human papillomavirus type 1a protein E7 (residues 44-93)",
    "composite z-score": 0.242
  },
  {
    "structure": "C=CC[C@]1(C(=O)N(C)C)N=C(c2ccc(OCCCO)cc2)O[C@H]1c1ccccc1N=[N+]=[N-]",
    "study.system": "Human papillomavirus type 1a protein E7 (residues 44-93)",
    "composite z-score": 1.4
  },
  {
    "structure": "COCCOC(=O)N1C(=O)[C@@]2(c3cc(C#CC4=CCCCC4)ccc31)[C@H](C(=O)N1CCN(c3ncccn3)CC1)[C@H]1C(=O)O[C@H](c3ccccc3)[C@H](c3ccccc3)N1[C@@H]2c1ccc(O)cc1",
    "study.system": "Human papillomavirus type 1a protein E7 (residues 44-93)",
    "composite z-score": 0.683
  }
]

# next compound below
Briefly, composite z-score measured for C#CCNC(=O)[C@H](Cc1ccccc1)NC(=O)[C@@H](N=[N+]=[N-])C(C)C : 0.902
